Where these numbers come from: patent US8889676B2

tested on: S. pneumoniae ATCC 49619; assay: Minimal inhibitory concentration (MIC) by broth microdilution (CLSI M7-A7); assay type: cell-based, Streptococcus pneumoniae; conditions: Streptococcus pneumoniae, ATCC49619; cation-adjusted Mueller Hinton Broth supplemented with 3% (v/v) lysed horse blood; microdilution method
reported-property: MIC (µg/mL)
Just the number please, in µg/mL, no unit attached.

Lab request: please report MIC under test system S. pneumoniae ATCC 49619 for CCNC(=O)Nc1cc2cccc(CNC(=O)OCc3cncnc3)c2cn1.Cl
4

What MIC appears in the records for this compound with S. pneumoniae ATCC 49619? C#CCOC(=O)NCc1ccc(-c2ccc(O)cc2)c2cc(NC(=O)NCC)ncc12.Cl
0.5

Field: MIC (S. pneumoniae ATCC 49619). Entry: CCNC(=O)Nc1cc2cccc(CNC(=O)OCCOC)c2cn1.Cl
4

---

test system: S. pneumoniae ATCC 49619; experiment: Minimal inhibitory concentration (MIC) by broth microdilution (CLSI M7-A7); format: cell-based, Streptococcus pneumoniae; conditions: Streptococcus pneumoniae, ATCC49619; cation-adjusted Mueller Hinton Broth supplemented with 3% (v/v) lysed horse blood; microdilution method
reported-property: log10 of MIC (log10 of the value in µg/mL)
All values: base-10 log of MIC in µg/mL.

Would you mind telling me what log10 of MIC value was observed for CCNC(=O)Nc1cc2c(-c3ccnc(N4CCOCC4)c3)ccc(CNC(=O)OC)c2cn1 ?
0.60

GET /values?readout=log10 of MIC&item= CCNC(=O)Nc1cc2cccc(CNC(=O)c3ccccc3)c2cn1
0.30

State the recorded log10 of MIC for this entry: CCNC(=O)Nc1cc2cccc(CNC(=O)OCC3CC3)c2cn1.Cl
0.60

Which measured log10 of MIC value corresponds to CCNC(=O)Nc1cc2c(-c3ccnc(C#N)c3)ccc(CNC(=O)OCCOC)c2cn1 ?
0.00

I am curious: what log10 of MIC value has been reported for CCNC(=O)Nc1cc2cccc(CNC(=O)CC3CC3)c2cn1 ?
0.30

For the compound CCNC(=O)Nc1cc2c(-c3ccncc3)ccc(CNC(=O)OCCC(N)=O)c2cn1 , what log10 of MIC is on record?
0.30

# query: log10 of MIC of entry CCNC(=O)Nc1cc2c(-c3ccncc3)ccc(CNC(=O)CC(=O)NC)c2cn1
0.60

Endpoint output: log10 of MIC of CCNC(=O)Nc1cc2cccc(CNC(=O)C(C)C)c2cn1 . Value?
0.60

Record request: log10 of MIC value, item CCNC(=O)Nc1cc2c(-c3ccncc3)ccc(CNC(=O)OCC#CCO)c2cn1
-0.60

Field request: log10 of MIC | item: CCNC(=O)Nc1cc2c(-c3ccnc(CC(=O)NC)c3)ccc(CNC(=O)OC)c2cn1
0.90

Could you share which log10 of MIC value was measured for CCNC(=O)Nc1cc2c(-c3ccnc(C#N)c3)ccc(CNC(=O)OC)c2cn1 ?
0.30

I'd like to know its log10 of MIC. The compound in question is CCNC(=O)Nc1cc2c(-c3ccncc3)ccc(CNC(=O)OCCc3cnn[nH]3)c2cn1
0.00

---

Provide the recorded log10 of MIC for the entries that follow.
system: S. pneumoniae ATCC 49619; assay: Minimal inhibitory concentration (MIC) by broth microdilution (CLSI M7-A7); assay type: cell-based, Streptococcus pneumoniae; conditions: Streptococcus pneumoniae, ATCC49619; cation-adjusted Mueller Hinton Broth supplemented with 3% (v/v) lysed horse blood; microdilution method
Short version: log10 scale, MIC, µg/mL.

Consider the compound shown here: CCNC(=O)Nc1cc2c(-c3ccnc(F)c3)ccc(CNC(=O)OC)c2cn1 [Example 161] What is its recorded log10 of MIC?
-0.30

Sample CCNC(=O)Nc1cc2c(-c3ccnc(O)c3)ccc(CNC(=O)OC)c2cn1 [Example 168] — what was its log10 of MIC?
0.90

Which log10 of MIC reading was recorded for the compound CCNC(=O)Nc1cc2cccc(CNC(=O)c3ccccn3)c2cn1 [Example 11] ?
0.30

Fill blank: measured log10 of MIC of the compound CCNC(=O)Nc1cc2c(-c3ccncc3)ccc(CNC(=O)OCCN(C)C(=O)OC(C)(C)C)c2cn1 [Example 82] is ____.
0.30

What value of log10 of MIC has been reported for the following compound? CCNC(=O)Nc1cc2c(F)ccc(CNC(=O)OCCOC)c2cn1 [Example 151]
0.30

Which log10 of MIC value is on record for CCNC(=O)Nc1cc2c(-c3ccnc(C)c3)ccc(CNC(=O)C3CC3)c2cn1 [Example 154] ?
-0.30

Endpoint output: log10 of MIC of C#CCOC(=O)NCc1ccc(-c2ccncc2C)c2cc(NC(=O)NCC)ncc12 [Example 126] . Value?
0.00

Given CCNC(=O)Nc1cc2c(-c3ccncc3)ccc(CNC(=O)CNC(=O)OC(C)(C)C)c2cn1 [Example 47] , state its recorded log10 of MIC.
0.00

Recorded log10 of MIC of CCNC(=O)Nc1cc2c(-c3ccncc3)ccc(CNC(=O)OCC[C@@H](O)CO)c2cn1.Cl [Example 102] , please.
0.00

Given the entry CCNC(=O)Nc1cc2c(-c3ccncc3)ccc(CNC(=O)OC(C)C)c2cn1 [Example 77] , report its measured log10 of MIC.
-0.30

Look at this compound and give its reported log10 of MIC. CCNC(=O)Nc1cc2cccc(CNC(=O)C3CCCCC3)c2cn1 [Example 6]
0.60

Quick check: log10 of MIC of CCNC(=O)Nc1cc2c(-c3ccncc3)ccc(CNC(=O)OCCCN3CCOCC3)c2cn1 [Example 110] ?
0.30

Item under review: C#CCOC(=O)NCc1ccc(-c2ccnc(C)c2)c2cc(NC(=O)NCC)ncc12 [Example 158] . Reported log10 of MIC?
-0.30

If you can, please state the reported log10 of MIC value of CCNC(=O)Nc1cc2c(-c3ccnc(C(N)=O)c3)ccc(CNC(=O)OCCOC)c2cn1 [Example 179] .
0.90

Tell me the measured log10 of MIC of CCNC(=O)Nc1cc2c(-c3ccnc(C)c3C)ccc(CNC(=O)OC)c2cn1.Cl [Example 189] , please.
0.90

---

test system: S. pneumoniae ATCC 49619; assay: Minimal inhibitory concentration (MIC) by broth microdilution (CLSI M7-A7); format: cell-based, Streptococcus pneumoniae; details: Streptococcus pneumoniae, ATCC49619; cation-adjusted Mueller Hinton Broth supplemented with 3% (v/v) lysed horse blood; microdilution method
reported-property: MIC (µg/mL)
Lab book: enter the figure in µg/mL, no units written.

Which MIC is reported with S. pneumoniae ATCC 49619 for this entry: CCNC(=O)Nc1cc2cccc(CNC(=O)OCc3ccncc3)c2cn1.Cl [Example 25] ?
2

Field: MIC (S. pneumoniae ATCC 49619). Entry: CCNC(=O)Nc1cc2c(-c3ccnc(C)c3)ccc(CNC(=O)c3ncc[nH]3)c2cn1 [Example 156]
0.5

Which MIC is reported with S. pneumoniae ATCC 49619 for this entry: CCNC(=O)Nc1cc2c(-c3ccncc3)ccc(CNC(=O)OCC#CCN)c2cn1 [Example 109] ?
2

What value of MIC on S. pneumoniae ATCC 49619 does CCNC(=O)Nc1cc2cccc(CNC(=O)C(C)(C)C)c2cn1 [Example 14] have?
4

Identify the measured MIC of CCNC(=O)Nc1cc2c(-c3ccnc(N)c3)ccc(CNC(=O)OCCOC)c2cn1 [Example 115] for S. pneumoniae ATCC 49619.
2

Request body: readout MIC, system S. pneumoniae ATCC 49619, query CCNC(=O)Nc1cc2c(-c3cc(C)ncc3C)ccc(CNC(=O)OC)c2cn1.Cl [Example 190] . Return the value.
4

Kindly state the measured MIC obtained for CCNC(=O)Nc1cc2c(-c3ccncc3)ccc(CNC(=O)CC)c2cn1 [Example 59] with S. pneumoniae ATCC 49619.
0.5

API: value(readout=MIC, system=S. pneumoniae ATCC 49619) for record CCNC(=O)Nc1cc2c(-c3ccncc3)ccc(CNC(=O)OC[C@@H]3CCC(=O)N3)c2cn1.Cl [Example 87]
0.25

Request body: readout MIC, system S. pneumoniae ATCC 49619, query CCNC(=O)Nc1cc2c(-c3ccncc3)ccc(CNC(=O)Cc3c[nH]cn3)c2cn1 [Example 60] . Return the value.
8

Return MIC measured with S. pneumoniae ATCC 49619 given this compound: CCNC(=O)Nc1cc2c(-c3ccnc(OC)c3)ccc(CNC(=O)OC)c2cn1 [Example 162]
1

Form field: MIC recorded for CCNC(=O)Nc1cc2c(-c3ccncc3)ccc(CNC(=O)OCCN3C(=O)CCC3=O)c2cn1.Cl [Example 97] with S. pneumoniae ATCC 49619 (enter value)
2

Recall the recorded MIC for CCNC(=O)Nc1cc2c(-c3ccnc(C(F)(F)F)c3)ccc(CNC(=O)OC)c2cn1 [Example 165] with S. pneumoniae ATCC 49619 and state it.
4

Hi! What's the reported MIC for CCNC(=O)Nc1cc2c(-c3ccncc3)ccc(CNC(=O)CCO)c2cn1 [Example 68] on S. pneumoniae ATCC 49619?
4
